Tested on: Mycobacterium tuberculosis
Experiment: Antimycobacterial activity against recombinant Mycobacterium tuberculosis containing Rv0341 promoter by luciferase assay
Type: functional
Set-up: concentration or dose not given beside the values
Active and inactive are the calls of the source. The rule behind the calls is not given here.
recorded.metric: Activity

INSERT INTO measurements (compound, target_or_test_system, result) VALUES
  ('C=C(C)[C@@H]1CC=C(CN2CCCN(CC3=CC[C@@H](C(=C)C)CC3)CC2)CC1', 'Mycobacterium tuberculosis', 'inactive'),
  ('C=C(C)[C@@H]1CC=C(CN2CCN(Cc3ccccc3)CC2)CC1', 'Mycobacterium tuberculosis', 'inactive'),
  ('C1CCCC(N2CCCN(C3CCCCCCC3)CC2)CCC1', 'Mycobacterium tuberculosis', '81%'),
  ('Fc1ccccc1N1CCN(C2CCC3CCCCC3C2)CC1 (centres undefined)', 'Mycobacterium tuberculosis', '145%');
